# Tested on: MOLT-4 leukemia
# assay.name: NCI-60 one-dose screen, 48 h (100 = growth as untreated, 0 = no growth, -100 = all killed)
# measurement.parameters: 10 µM unless noted
Compounds without any hit were thinned out: in the full panel of roughly 83,000, 20% have a hit.
experimental.endpoint: growth (%)
Record the value in %, omitting the unit from your answer.

Guide cases for growth, answers given:
molecule | experimental.endpoint | recorded.measurement
CCc1nc(C(N)=O)c(Nc2ccc(N3CCC(N4CCN(C)CC4)CC3)c(OC)c2)nc1NC1CCOCC1 | growth | 17.2
COCCN1CCN(Cc2ccc(-c3n[nH]c4c3C(=O)c3c(NC(=O)NN5CCOCC5)cccc3-4)cc2)CC1 | growth | -15
CCN1CCN(Cc2ccc(Cc3ncc(F)c(-c4cc(F)c5nc(C)n(C(C)C)c5c4)n3)nc2)CC1 | growth | 13.4
Cc1cc(N(CCNc2ccnc3cc(Cl)ccc23)Cc2ccc3c(c2)OCO3)nc(N2CCCC2)n1 | growth | -17.7
CCCCCCCC(=O)SCC/C=C/[C@@H]1CC(=O)NCc2cc(ccn2)C2=N[C@@](C)(CS2)C(=O)N[C@@H](C(C)C)C(=O)O1 | growth | 12.8
Cc1nc(Nc2n[nH]c3c2CN(C(=O)N[C@H](CN(C)C)c2ccccc2)C3(C)C)c2sccc2n1 | growth | -0.869

Using the record for CCCCCCC1(/C=N/NC(N)=O)NC(=O)NC1=O (centres undefined) , report its growth.
101

How about this molecule: Clc1nc(Cl)c2ncn(C/C=C\Cn3cnc4c(Cl)nc(Cl)nc43)c2n1
-55.4

Item: O=C(CNc1nc(-c2ccc(Cl)cc2)cs1)Nc1ccc(-c2nc3ccccc3s2)cc1
92.7

* * *

# System: A549/ATCC NSCLC
# assay.name: NCI-60 one-dose screen, 48 h (100 = growth as untreated, 0 = no growth, -100 = all killed)
# measurement.parameters: 10 µM unless noted
This is part of a sample that, as a whole, favours compounds with a hit. Of some 83,000 tested, about 20% had one in any assay.
Is growth at least 60%? Then Y. If not, N.

Reference set (9 entries):
compound | label
N#Cc1ccc(-n2nnc3ccccc32)cc1C#N | Y
C#Cc1cccc(Nc2ncnc3cc(OC)c(OCCCCCCC(=O)NO)cc23)c1 | N
CCOC(=O)C1=C(C)N=C2Sc3cc(OC(F)(F)F)ccc3N2[C@H]1c1ccccn1 | N
O=C(Cn1ccnc1)Nc1ccc(-c2nc3ccccc3s2)cc1 | Y
CC1(C=O)NC(=O)NC1=O (stereo not given) | N
O=C1CC(c2ccc(Cl)cc2)c2ncn(-c3cccc(Cl)c3)c2N1 (stereo not given) | N
CS(=O)(=O)N1CCN(Cc2cc3nc(-c4cccc5[nH]ncc45)nc(N4CCOCC4)c3s2)CC1 | N
C[C@@H](Oc1cc(C(=O)Nc2ccc(C(=O)N3CCN(C)CC3)cc2)nnc1N)c1c(Cl)ccc(F)c1Cl | N
COc1cc(C2CC(c3ccc(Cl)cc3)=NN2c2ccc(Cl)cc2)cc(OC)c1OC (stereo not given) | Y

Here is another compound to look at.
Quick check: does Clc1nc(Cl)c2ncn(C/C=C\Cn3cnc4c(Cl)nc(Cl)nc43)c2n1 have growth greater than or equal to 60%?
N

* * *

# Tested on: SNB-75 CNS
# assay.name: NCI-60 one-dose screen, 48 h
# measurement.parameters: 10 µM unless noted
Compounds without any hit were thinned out: in the full panel of roughly 83,000, 20% have a hit. Active and inactive are the calls of the source. The calls were made as follows: active = growth percent below 10; inactive = the rest.
Hello, when you answer, please use one of the following outcomes: YES (active), NO (inactive)

Observe how each entry below is paired with its result.
molecule | assayed.system | label
Cc1cnc(NC(=O)Nc2cc(Br)c(C)cc2OC[C@@H]2CNCCO2)cn1 | SNB-75 CNS | NO
CCCc1cc2cc(-n3nc(C)c4c3CC(C)(C)CC4=O)cc(NC3CCC(O)CC3)c2c(=O)[nH]1 (centres undefined) | SNB-75 CNS | NO
COc1cc2c(cc1OCCCCCN1CCN(c3ncnc4ccccc34)CC1)N=CC1CCCN1C2=O (centres undefined) | SNB-75 CNS | YES
Cc1nc2ccc(-n3ncc(C(=O)c4cc5ccccc5[nH]4)c3N)cc2[nH]1 | SNB-75 CNS | NO
Cc1cc(NCC(=O)Nc2ccc(-c3nc4ccccc4s3)cc2)no1 | SNB-75 CNS | NO
COc1ccc(Nc2ncccc2NC(=O)c2cn(Cc3cccc(Oc4ccccc4)c3)nn2)cc1 | SNB-75 CNS | NO
Cn1cnc2c(F)c(Nc3ccc(Br)cc3Cl)c(C(=O)NOCCO)cc21 | SNB-75 CNS | NO
Cc1cc(Nc2cc(N3CCN(C)CC3)nc(Sc3ccc(NC(=O)C4CC4)cc3)n2)n[nH]1 | SNB-75 CNS | YES

Lab note: next molecule to report on.
For this molecule, state the assay outcome: C/C(=C(/c1ccc(Cl)cc1)c1ccc(OCCN2CCCCCC2)cc1)c1ccccc1
NO
